Where these numbers come from: patent US20220024945A1

Target: isolated recombinant JAK1 kinase domain (Homo sapiens, UniProt P23458)
Sequence (P23458 875-1153 limits assumed): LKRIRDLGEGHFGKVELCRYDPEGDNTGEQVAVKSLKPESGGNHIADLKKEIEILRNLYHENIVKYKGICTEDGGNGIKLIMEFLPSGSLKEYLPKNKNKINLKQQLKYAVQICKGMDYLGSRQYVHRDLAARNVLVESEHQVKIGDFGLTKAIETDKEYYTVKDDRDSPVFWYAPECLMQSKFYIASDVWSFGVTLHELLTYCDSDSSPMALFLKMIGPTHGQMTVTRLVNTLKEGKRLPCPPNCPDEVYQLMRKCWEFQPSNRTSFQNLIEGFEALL
Assay: JAK enzyme assay (Caliper LabChip), JAK1 kinase domain
Conditions: ATP 25 μM; 1.5 nM JAK1; Morrison tight binding model
Classify: rule met when Ki is strictly less than 0.4 nM; rule not met when Ki is not.

Task: Does O=C(Nc1c[nH]nc1-c1cc(SC2CCOC2)ccc1OC(F)F)c1cnn2cccnc12 (stereo not shown) [Example 8] have Ki strictly under 0.4 nM?
Result: rule not met

New cases:
Task: Does CSc1ccc(OC(F)F)c(-c2nn(CC(C)(C)O)cc2NC(=O)c2cnn3cccnc23)c1 [Example 19] have Ki strictly under 0.4 nM?
Result: rule met

Task: Does CN1CCCC(Sc2ccc(OC(F)F)c(-c3n[nH]cc3NC(=O)c3cnn4cccnc34)c2)C1 (single isomer, unassigned) [Example 31] have Ki strictly under 0.4 nM?
Result: rule not met

Task: Does CSc1ccc(OC(F)F)c(-c2nn(CC(=O)N(C)C)cc2NC(=O)c2cnn3cccnc23)c1 [Example 44] have Ki strictly under 0.4 nM?
Result: rule met

Task: Does CNC(=O)Cn1cc(NC(=O)c2cnn3cccnc23)c(-c2cc(SC(F)F)ccc2OC(F)F)n1 [Example 32] have Ki strictly under 0.4 nM?
Result: rule met

Task: Does C[C@H](O)Cn1cc(Sc2ccc(OC(F)F)c(-c3nn(CC(=O)N(C)C)cc3NC(=O)c3cnn4cccnc34)c2)cn1 [Example 46] have Ki strictly under 0.4 nM?
Result: rule not met

====

Molecular target: isolated recombinant JAK1 kinase domain (Homo sapiens, UniProt P23458)
Test: JAK enzyme assay (Caliper LabChip), JAK1 kinase domain
Details: ATP 25 μM; 1.5 nM JAK1; Morrison tight binding model
Classify: criterion met when Ki is strictly less than 400 pM; criterion not met when Ki is not.

Past entries and their recorded results:
Task: Does `CN(C)C(=O)Cn1cc(NC(=O)c2cnn3cccnc23)c(-c2cc(S(=O)(=O)C(F)F)ccc2OC(F)F)n1` have Ki strictly under 400 pM?
Result: criterion met

Task: Does `O=C(Nc1cn(CCO)nc1-c1cc(SC(CF)CF)ccc1OC(F)F)c1cnn2cccnc12` have Ki strictly under 400 pM?
Result: criterion met

Task: Does `O=C(Nc1cn(C2COC2)nc1-c1cc(SC2COC2)ccc1OC(F)F)c1cnn2cccnc12` have Ki strictly under 400 pM?
Result: criterion not met

Task: Does `CN(C)C(=O)Cn1cc(NC(=O)c2cnn3cccnc23)c(-c2cc(SCC(F)(F)F)ccc2OC(F)F)n1` have Ki strictly under 400 pM?
Result: criterion met

Task: Does O=C(Nc1cn(Cc2cn(C3CCN([C@@H]4CCOC4)CC3)nn2)nc1-c1cc(SC2COC2)ccc1OC(F)F)c1cnn2cccnc12 (stereo in doubt) have Ki strictly under 400 pM?
Result: criterion not met

Now let's try a different one.
Task: Does `COC(=O)CSc1ccc(OC(F)F)c(-c2n[nH]cc2NC(=O)c2cnn3cccnc23)c1` have Ki strictly under 400 pM?
Result: criterion met

====

For each entry below, report its log10(Ki) value.
Molecular target: isolated recombinant JAK2 kinase domain (Homo sapiens)
Sequence (O60674 849-1124 limits assumed): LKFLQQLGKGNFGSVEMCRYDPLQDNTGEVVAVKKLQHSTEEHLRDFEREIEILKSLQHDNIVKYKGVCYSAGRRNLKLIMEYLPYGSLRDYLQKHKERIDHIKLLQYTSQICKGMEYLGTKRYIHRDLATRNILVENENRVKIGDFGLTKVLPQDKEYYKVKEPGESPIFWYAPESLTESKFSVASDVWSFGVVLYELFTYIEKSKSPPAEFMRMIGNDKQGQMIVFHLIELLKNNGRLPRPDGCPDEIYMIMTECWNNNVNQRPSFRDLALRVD
Assay: JAK enzyme assay (Caliper LabChip), JAK2 kinase domain
Settings: ATP 25 μM, 0.2 nM JAK2, Morrison tight binding model
Hey, these are logged values: log10 of Ki, nM being the unit before logging.

// below: answered compounds
The recorded log10(Ki) for entry `CN(C)C(=O)Cn1cc(NC(=O)c2cnn3cccnc23)c(-c2cc(SC(F)F)ccc2OC(F)F)n1` equals -0.28

The recorded log10(Ki) for entry `Cn1cc(NC(=O)c2cnn3cccnc23)c(-c2cc(SC3COC3)ccc2OC(F)F)n1` equals -0.89

The recorded log10(Ki) for entry `CN(C)C(=O)Cn1cc(NC(=O)c2cnn3cccnc23)c(-c2cc(SCC(F)(F)F)ccc2OC(F)F)n1` equals -0.11

The recorded log10(Ki) for entry O=C(Nc1c[nH]nc1-c1cc(SC2CCCNC2)ccc1OC(F)F)c1cnn2cccnc12 (single isomer, unassigned) [Example 37] equals -0.24

The recorded log10(Ki) for entry CC(C)Sc1ccc(OC(F)F)c(-c2nn(Cc3cn(C4CCN([C@@H]5CCOC5)CC4)nn3)cc2NC(=O)c2cnn3cccnc23)c1 (stereo in doubt) equals -0.34

Hello, I would appreciate it if you could give log10(Ki) for each entry below.
1. O=C(Nc1cn(Cc2cn(C3CCN([C@@H]4CCOC4)CC3)nn2)nc1-c1cc(SC2COC2)ccc1OC(F)F)c1cnn2cccnc12 (stereo in doubt)
2. CSc1ccc(OC(F)F)c(-c2nn(CC(=O)N3CCC(O)CC3)cc2NC(=O)c2cnn3cccnc23)c1
3. O=C(Nc1c[nH]nc1-c1cc(SC2CCOCC2)ccc1OC(F)F)c1cnn2cccnc12
4. CNC(=O)Cn1cc(NC(=O)c2cnn3cccnc23)c(-c2cc(SC(F)F)ccc2OC(F)F)n1

Result:
[-0.42, -0.26, -0.82, -0.29]

Hello, I would appreciate it if you could give log10(Ki) for each entry below.
1. O=C(Nc1c[nH]nc1-c1cc(SC2CCC2)ccc1OC(F)F)c1cnn2cccnc12
2. O=C(Nc1c[nH]nc1-c1cc(SC(F)F)ccc1OC(F)F)c1cnn2cccnc12
3. C[C@H](O)Cn1cc(Sc2ccc(OC(F)F)c(-c3nn(CC(=O)N(C)C)cc3NC(=O)c3cnn4cccnc34)c2)cn1
4. O=C(Nc1c[nH]nc1-c1cc(SCC(F)(F)F)ccc1OC(F)F)c1cnn2cccnc12
5. O=C(Nc1cn(Cc2cn(C3CCN(C4COC4)CC3)nn2)nc1-c1cc(SC2COC2)ccc1OC(F)F)c1cnn2cccnc12
6. O=C(Nc1cn(CC(=O)N2CC=CCC2)nc1-c1cc(SC2COC2)ccc1OC(F)F)c1cnn2cccnc12

Result:
-0.85
-1.05
0.11
-0.92
-0.24
-0.23

Hello, I would appreciate it if you could give log10(Ki) for each entry below.
1. O=C(Nc1cn(Cc2cn(C3CCN([C@@H]4CCOC4)CC3)nn2)nc1-c1cc(SC2CC2)ccc1OC(F)F)c1cnn2cccnc12 (stereo in doubt)
2. CSc1ccc(OC(F)F)c(-c2nn(CC(=O)N(C)C)cc2NC(=O)c2cnn3cccnc23)c1
3. CSc1ccc(OC(F)F)c(-c2nn(C3CCOCC3)cc2NC(=O)c2cnn3cccnc23)c1
4. O=C(Nc1cn(C2COC2)nc1-c1cc(SC2COC2)ccc1OC(F)F)c1cnn2cccnc12
5. O=C(Nc1cn(CC(=O)N2CCC(N3CCOCC3)CC2)nc1-c1cc(SC(F)F)ccc1OC(F)F)c1cnn2cccnc12
6. CN(C)C(=O)Cn1cc(NC(=O)c2cnn3cccnc23)c(-c2cc(SC3COC3)ccc2OC(F)F)n1

Result:
[-0.54, -0.62, -0.04, -0.66, -0.14, -0.03]

Hello, I would appreciate it if you could give log10(Ki) for each entry below.
1. CSc1ccc(OC(F)F)c(-c2nn(CC(C)(C)O)cc2NC(=O)c2cnn3cccnc23)c1
2. O=C(Nc1cn(Cc2cn(C3CCN([C@H]4CCOC4)CC3)nn2)nc1-c1cc(SC2COC2)ccc1OC(F)F)c1cnn2cccnc12 (stereo in doubt)

Result:
1: -0.32; 2: -0.36

Hello, I would appreciate it if you could give log10(Ki) for each entry below.
1. COC(=O)CSc1ccc(OC(F)F)c(-c2n[nH]cc2NC(=O)c2cnn3cccnc23)c1
2. CN(C)C(=O)Cn1cc(NC(=O)c2cnn3cccnc23)c(-c2cc(S(C)(=O)=O)ccc2OC(F)F)n1

Result:
-0.82
-0.10

Hello, I would appreciate it if you could give log10(Ki) for each entry below.
1. CN(C)C(=O)Cn1cc(NC(=O)c2cnn3cccnc23)c(-c2cc(S(=O)(=O)C(F)F)ccc2OC(F)F)n1
2. CC(C)Sc1ccc(OC(F)F)c(-c2nn(CCO)cc2NC(=O)c2cnn3cccnc23)c1
3. CN(C1CCN(C(=O)Cn2cc(NC(=O)c3cnn4cccnc34)c(-c3cc(SC4CCOCC4)ccc3OC(F)F)n2)CC1)C1COC1

Result:
1. -0.25
2. -0.62
3. 0.47

====

For each entry below, report its pKi value.
Target: isolated recombinant JAK1 kinase domain (Homo sapiens, UniProt P23458)
Assay: JAK enzyme assay (Caliper LabChip), JAK1 kinase domain
Settings: ATP 25 μM; 1.5 nM JAK1; Morrison tight binding model
Answers are plain numbers, as −log10 of the molar value.

// below: answered compounds
The recorded pKi for entry CN(C)C(=O)Cn1cc(NC(=O)c2cnn3cccnc23)c(-c2cc([S+](C)[O-])ccc2OC(F)F)n1 (stereo not drawn) equals 8.87

The recorded pKi for entry `CSc1ccc(OC(F)F)c(-c2nn(CC(=O)N3CCCCC3)cc2NC(=O)c2cnn3cccnc23)c1` equals 9.60

The recorded pKi for entry CC(CO)Sc1ccc(OC(F)F)c(-c2n[nH]cc2NC(=O)c2cnn3cccnc23)c1 (stereo not drawn) equals 9.64

The recorded pKi for entry O=C(Nc1cn(Cc2cn(C3CCN([C@@H]4CCOC4)CC3)nn2)nc1-c1cc(SC2CC2)ccc1OC(F)F)c1cnn2cccnc12 (stereo in doubt) equals 9.40

The recorded pKi for entry `CN(C)C(=O)Cn1cc(NC(=O)c2cnn3cccnc23)c(-c2cc(S(C)(=O)=O)ccc2OC(F)F)n1` equals 9.35

Hello, I would appreciate it if you could give pKi for each entry below.
1. CSc1ccc(OC(F)F)c(-c2nn(CC(N)=O)cc2NC(=O)c2cnn3cccnc23)c1
2. CC[C@H](O)Cn1cc(NC(=O)c2cnn3cccnc23)c(-c2cc(SC)ccc2OC(F)F)n1 (racemic)
3. O=C(Nc1c[nH]nc1-c1cc(SC2CCC2)ccc1OC(F)F)c1cnn2cccnc12
4. O=C(Nc1c[nH]nc1-c1cc(SCC(F)(F)F)ccc1OC(F)F)c1cnn2cccnc12
5. CN(C1CCN(C(=O)Cn2cc(NC(=O)c3cnn4cccnc34)c(-c3cc(SC4CCOCC4)ccc3OC(F)F)n2)CC1)C1COC1
6. O=C(Nc1cn(C2CN(C3CC(O)C3)C2)nc1-c1cc(SC2COC2)ccc1OC(F)F)c1cnn2cccnc12 (single isomer, unassigned) [Example 39]
7. O=C(Nc1cn(C2CN(C3COC3)C2)nc1-c1cc(SC2COC2)ccc1OC(F)F)c1cnn2cccnc12
8. O=C(Nc1cn(C2CN(C3CC(O)C3)C2)nc1-c1cc(SC2COC2)ccc1OC(F)F)c1cnn2cccnc12 (single isomer, unassigned) [Example 40]

Result:
1. 9.54
2. 9.46
3. 9.64
4. 9.80
5. 9.01
6. 8.84
7. 8.94
8. 8.93
